- Tested on: human plasma
- Experimental setup: both, human, 5 h, 10 μM
Fup.Med strictly under 0.2 means 1.0; at 0.2 or over means 0.0.

// known answers, use as guide
[
  {
    "Compound": "OCC(F)(F)OC(F)(F)C(F)(F)OC(F)(F)C(F)(F)OC(F)(F)CO",
    "Category label": 1.0
  },
  {
    "Compound": "NC(=O)C(F)(F)C(F)(F)F [Pentafluoropropionamide]",
    "Category label": 0.0
  },
  {
    "Compound": "COC(=O)C(F)(F)C(F)(F)OC(F)(C(F)(F)F)C(F)(F)OC(F)=C(F)F (centres unmarked)",
    "Category label": 1.0
  },
  {
    "Compound": "OCC(F)(F)OC(F)(F)C(F)(F)OC(F)(F)CO",
    "Category label": 1.0
  }
]

Turning now to a further compound:
Please determine if C=CC(=O)OCC(F)(F)C(F)F [2,2,3,3-Tetrafluoropropyl acrylate] is below 0.2 in terms of Fup.Med.
1.0
